TGT: BuChE from equine serum (EqBuChE) (Equus caballus)
Construct: butyrylcholinesterase from equine serum (EqBuChE); purchased Sigma-Aldrich (Prague, Czech Republic); host or cells: equine serum (natural source)
Sequence (P81908 whole entry): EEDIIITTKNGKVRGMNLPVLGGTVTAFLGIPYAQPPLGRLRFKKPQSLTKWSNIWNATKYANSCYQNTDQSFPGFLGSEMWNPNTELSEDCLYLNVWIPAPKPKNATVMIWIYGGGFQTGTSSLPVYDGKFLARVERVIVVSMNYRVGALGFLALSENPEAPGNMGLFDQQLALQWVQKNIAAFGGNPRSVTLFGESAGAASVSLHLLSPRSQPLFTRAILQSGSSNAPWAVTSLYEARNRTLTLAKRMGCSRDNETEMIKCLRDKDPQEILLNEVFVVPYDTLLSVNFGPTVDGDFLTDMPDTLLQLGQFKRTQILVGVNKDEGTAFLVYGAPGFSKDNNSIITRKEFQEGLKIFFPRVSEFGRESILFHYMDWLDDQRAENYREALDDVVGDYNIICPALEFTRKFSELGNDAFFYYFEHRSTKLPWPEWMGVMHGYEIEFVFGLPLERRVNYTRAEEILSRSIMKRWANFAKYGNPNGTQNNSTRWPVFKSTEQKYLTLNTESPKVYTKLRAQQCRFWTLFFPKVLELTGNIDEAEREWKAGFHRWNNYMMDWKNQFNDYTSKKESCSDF
METHOD_NOTES: biochemical
PROTOCOL_CONDITIONS: mean ± SD, n = three independent experiments, read-out: IC50 BuChE
Protocol: Newly synthesized N-alkyl-2-[4-(trifluoromethyl)benzoyl]hydrazine-1-carboxamides 2a–2q were evaluated for their in vitro potency to inhibit AChE from electric eel (EeAChE) and BuChE from equine serum (EqBuChE) using modified Ellman’s spectrophotometric method. […] Based on IC50 values for both enzymes, selectivity indexes (SI) as the ratio of IC50 for BuChE/IC50 for AChE to quantify the preference for AChE were calculated (Table 1). […]
pIC50: −log10 of the molar value.
Answer No if pIC50 is under 4, and Yes if it is 4 or more.

Examples with answers:
[Q] Reported pIC50 reaches at least 4 for CCCCCCCCCCCCCNC(=O)NNC(=O)c1ccc(C(F)(F)F)cc1 [2m] ?
[A] No

[Q] Reported pIC50 reaches at least 4 for CCCCCCCCCCCCCCCC(=O)NNC(=O)c1ccc(C(F)(F)F)cc1 [3b] ?
[A] No

[Q] Reported pIC50 reaches at least 4 for CCCCCNC(=O)NNC(=O)c1ccc(C(F)(F)F)cc1 [2e] ?
[A] Yes

[Q] Reported pIC50 reaches at least 4 for CCCCCCCCCCCCCCCCNC(=O)NNC(=O)c1ccc(C(F)(F)F)cc1 [2p] ?
[A] No

# input for lookup
[Q] Reported pIC50 reaches at least 4 for CCCCCCCCCCCCCCCNC(=O)NNC(=O)c1ccc(C(F)(F)F)cc1 [2o] ?
[A] No
